Sequence of the target: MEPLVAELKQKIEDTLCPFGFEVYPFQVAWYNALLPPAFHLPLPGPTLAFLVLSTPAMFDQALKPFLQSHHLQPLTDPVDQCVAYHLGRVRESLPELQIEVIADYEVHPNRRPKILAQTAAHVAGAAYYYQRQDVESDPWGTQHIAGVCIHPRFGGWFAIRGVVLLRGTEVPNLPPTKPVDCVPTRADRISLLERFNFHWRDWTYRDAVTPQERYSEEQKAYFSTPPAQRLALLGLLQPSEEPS
ASSAY READOUT: Kd (µM)
Numeric answer only, unit µM assumed.

Dear colleague, I am looking for the recorded Kd of the following molecule: N[C@@H](CCC(=O)N[C@@H](CS)C(=O)NCC(=O)O)C(=O)O
206
